- ASSAYED SYSTEM: UniProt P35462
- Sequence (P35462 whole entry): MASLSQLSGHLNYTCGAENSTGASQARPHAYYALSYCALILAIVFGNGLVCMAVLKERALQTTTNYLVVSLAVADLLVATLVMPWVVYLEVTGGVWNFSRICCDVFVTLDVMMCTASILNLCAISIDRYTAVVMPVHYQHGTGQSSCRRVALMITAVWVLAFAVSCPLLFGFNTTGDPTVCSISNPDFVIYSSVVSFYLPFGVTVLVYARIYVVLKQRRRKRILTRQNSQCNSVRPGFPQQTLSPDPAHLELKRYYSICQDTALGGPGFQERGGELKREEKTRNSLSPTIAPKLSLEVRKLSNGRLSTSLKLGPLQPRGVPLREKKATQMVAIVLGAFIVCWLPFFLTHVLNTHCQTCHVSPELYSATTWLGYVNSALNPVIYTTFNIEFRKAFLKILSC
- MEASUREMENT DESCRIPTION: GIRK1/[…] current activation in Xenopus oocytes expressing D3R
- Type: cell-based

ENTRY SMILES | EC50 [nM]
Clc1cccc(C2CCN(CCCOc3ccc4scnc4c3)CC2)c1Cl | 62.1
